Parameter 'readout' = pIC50; parameter 'system' = BRD2 (Homo sapiens (Human), UniProt P25440).
Sequence (P25440 60-472): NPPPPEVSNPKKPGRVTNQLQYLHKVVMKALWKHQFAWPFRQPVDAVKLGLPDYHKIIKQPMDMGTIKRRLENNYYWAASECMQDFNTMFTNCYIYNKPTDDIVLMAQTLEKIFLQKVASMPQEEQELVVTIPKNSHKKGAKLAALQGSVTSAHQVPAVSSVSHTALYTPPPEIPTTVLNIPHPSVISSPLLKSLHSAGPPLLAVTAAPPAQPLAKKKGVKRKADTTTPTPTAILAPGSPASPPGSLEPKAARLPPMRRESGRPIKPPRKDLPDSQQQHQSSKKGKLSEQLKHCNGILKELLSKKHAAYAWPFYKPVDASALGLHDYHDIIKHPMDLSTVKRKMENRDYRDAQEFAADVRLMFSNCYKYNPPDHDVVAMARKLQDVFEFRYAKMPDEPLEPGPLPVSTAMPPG
pIC50: −log10 of the molar value.
ASSAY_ENDPOINT: pIC50

Field: example entries. Status: answers known.
[
  {
    "COMPOUND": "CC(=O)Nc1cn(C)c2c1C(=O)N(c1cc(C)c3nnn(C)c3n1)C2c1ccc(Cl)cc1 (centres unmarked) [Example 96]",
    "STUDY_TARGET": "BRD2 (Homo sapiens (Human), UniProt P25440)",
    "REPORTED": 7.44
  },
  {
    "COMPOUND": "Cc1cc(N2C(=O)c3cc(-c4cccc(=O)n4C)n(C4CC4)c3C2c2ccc(Cl)cc2)cn(C)c1=O (centres unmarked) [Example 63]",
    "STUDY_TARGET": "BRD2 (Homo sapiens (Human), UniProt P25440)",
    "REPORTED": 7.00
  },
  {
    "COMPOUND": "COc1ncccc1-c1cc2c([nH]1)C(c1ccc(Cl)cc1)N(c1cc(C)c3nnc(C)n3c1)C2=O (centres unmarked) [Example 27]",
    "STUDY_TARGET": "BRD2 (Homo sapiens (Human), UniProt P25440)",
    "REPORTED": 7.43
  },
  {
    "COMPOUND": "Cc1cn(C2COC2)c2c1C(=O)N(c1cc(C)c3nnc(C)n3c1)C2c1ccc(Cl)cc1 (centres unmarked) [Example 6]",
    "STUDY_TARGET": "BRD2 (Homo sapiens (Human), UniProt P25440)",
    "REPORTED": 7.40
  },
  {
    "COMPOUND": "CNC(=O)c1cn(C)c2c1C(=O)N(c1cc(C)c3nnn(C)c3n1)C2c1ccc(Cl)cc1 (centres unmarked) [Example 93]",
    "STUDY_TARGET": "BRD2 (Homo sapiens (Human), UniProt P25440)",
    "REPORTED": 7.82
  },
  {
    "COMPOUND": "Cc1cc(N2C(=O)c3cc(-c4cccc(N(C)C)n4)n(C)c3C2c2ccc(Cl)cc2)cn(C)c1=O (centres unmarked) [Example 51]",
    "STUDY_TARGET": "BRD2 (Homo sapiens (Human), UniProt P25440)",
    "REPORTED": 7.49
  },
  {
    "COMPOUND": "Cc1cc(N2C(=O)c3cc(C4CC4)n(C)c3C2c2ccc(Cl)cc2)cn(C)c1=O (centres unmarked) [Example 68]",
    "STUDY_TARGET": "BRD2 (Homo sapiens (Human), UniProt P25440)",
    "REPORTED": 7.17
  },
  {
    "COMPOUND": "Cn1ccc2c1C(c1ccc(F)cc1)N(c1cc(Cl)c(=O)n(C)c1)C2=O (centres unmarked) [Example 88]",
    "STUDY_TARGET": "BRD2 (Homo sapiens (Human), UniProt P25440)",
    "REPORTED": 6.54
  },
  {
    "COMPOUND": "Cc1ccc(C2c3c(ccn3C)C(=O)N2c2cc(C)c(=O)n(C)c2)cc1 (centres unmarked) [Example 81]",
    "STUDY_TARGET": "BRD2 (Homo sapiens (Human), UniProt P25440)",
    "REPORTED": 6.90
  },
  {
    "COMPOUND": "Cc1cc(N2C(=O)c3c(C4CC4)cn(C4CN(C)C4)c3C2c2ccc(Cl)cc2)cn2c(C)nnc12 (centres unmarked) [Example 16]",
    "STUDY_TARGET": "BRD2 (Homo sapiens (Human), UniProt P25440)",
    "REPORTED": 7.85
  }
]

1. CCOC(=O)n1cc(C)c2c1C(c1ccc(Cl)cc1)N(c1cc(C)c3nnc(C)n3c1)C2=O (centres unmarked) [Example 11]
2. Cc1cc(N2C(=O)c3cc[nH]c3C2c2ccc(Cl)cc2)cn2c(C)nnc12 (centres unmarked) [Example 21]
3. Cc1cc(N2C(=O)c3ccn(C)c3C2c2ccc(Cl)cc2)cn(C)c1=O (centres unmarked) [Example 72]
# rank_down: sort by pIC50, max first Output spec: labels arranged per the requested ranking.
1, 2, 3

A. Cn1c(-c2ccn(C)c(=O)c2)cc2c1C(c1ccc(Cl)cc1)N(c1cc(Cl)c(=O)n(C)c1)C2=O (centres unmarked) [Example 41]
B. COc1ncc(-c2cc3c(n2C)[C@@H](c2ccc(Cl)cc2)N(c2cc(C)c(=O)n(C)c2)C3=O)c(OC)n1 [Example 54]
Lower value for measured pIC50? Options: A , B State your choice using its label.
A

1. Cc1cc(N2C(=O)c3cc(-c4cccn(C)c4=O)n(C4CC4)c3C2c2ccc(Cl)cc2)cn(C)c1=O (centres unmarked) [Example 65]
2. Cc1cc(N2C(=O)c3c(C4CC4)cn(C)c3C2c2ccc(Cl)cc2)cn(C)c1=O (centres unmarked) [Example 37]
Among 1 and 2 , whose measured pIC50 is the smaller figure? // output: label of the selected item
1

* * *

test system: THP-1; assay: Cell growth inhibition assay (CellTiter-Glo), THP-1; type: cell-based, human; details: THP-1 cells, 4 days, total growth inhibition
This section presents compounds with their documented THP-1 TGI values.
Give the value, in units of nM, as a plain number.

Look over these answered cases.
[
  {
    "COMPOUND": "Cc1cc(N2C(=O)c3cc(C4=CCOCC4)n(C)c3C2c2ccc(Cl)cc2)cn2c(C)nnc12 (stereo in doubt) [Example 137]",
    "THP-1 TGI (nM)": 22.75
  },
  {
    "COMPOUND": "CNC(=O)c1cn(C)c2c1C(=O)N(c1cc(C)c3nnn(C)c3n1)C2c1ccc(Cl)cc1 (stereo not drawn) [Example 93]",
    "THP-1 TGI (nM)": 11.24
  },
  {
    "COMPOUND": "COc1ncc(-c2cc3c(n2C)C(c2ccc(Cl)cc2)N(c2cc(Cl)c(=O)n(C)c2)C3=O)cn1 (stereo not drawn) [Example 40]",
    "THP-1 TGI (nM)": 137
  },
  {
    "COMPOUND": "Cc1cn(C)c2c1C(=O)N(c1cc(C)c3nnc(C(F)F)n3c1)C2c1ccc(Cl)cc1 (stereo not drawn) [Example 107]",
    "THP-1 TGI (nM)": 22
  },
  {
    "COMPOUND": "COCCn1cc(C)c2c1C(c1ccc(Cl)cc1)N(c1cc(C)c3nnc(C)n3c1)C2=O (stereo not drawn) [Example 13]",
    "THP-1 TGI (nM)": 38.9
  }
]

// switching to the query compound
Hi! What's the reported THP-1 TGI for Cc1cn(C)c2c1C(=O)N(c1cc(C)c3nnn(C)c3n1)C2c1ccc(Cl)cc1 (stereo not drawn) [Example 32] on THP-1?
343

* * *

tested on: MV-4-11; assay: Cell growth inhibition assay (CellTiter-Glo), MV-4-11; assay type: cell-based, human; conditions: MV-4-11 cells, 4 days, total growth inhibition
Below: a set of entries, each annotated with reported MV-4-11 TGI.
Express your answer in nM, writing the number without its unit.

[
  {
    "COMPOUND": "COCCn1cc(C)c2c1C(c1ccc(Cl)cc1)N(c1cc(C)c3nnc(C)n3c1)C2=O (stereo not drawn)",
    "ASSAY_ENDPOINT": "MV-4-11 TGI",
    "REPORTED": 24.85
  },
  {
    "COMPOUND": "COc1ncccc1-c1cc2c(n1C)C(c1ccc(Cl)cc1)N(c1cc(C)c3nnc(C)n3c1)C2=O (stereo in doubt) [Example 135]",
    "ASSAY_ENDPOINT": "MV-4-11 TGI",
    "REPORTED": 12.44
  },
  {
    "COMPOUND": "Cc1cc(N2C(=O)c3cc(-c4ccc(=O)n(C)c4)n(C4CC4)c3C2c2ccc(Cl)cc2)cn(C)c1=O (stereo not drawn)",
    "ASSAY_ENDPOINT": "MV-4-11 TGI",
    "REPORTED": 118
  },
  {
    "COMPOUND": "Cc1cc(N2C(=O)c3c(C4CC4)cn(C)c3C2c2ccc(Cl)cc2)cn(C)c1=O (stereo not drawn)",
    "ASSAY_ENDPOINT": "MV-4-11 TGI",
    "REPORTED": 38.55
  }
]

GET /values?readout=MV-4-11 TGI&item= CC(=O)N1CC(c2cn(C)c3c2C(=O)N(c2cc(C)c4nnc(C)n4c2)C3c2ccc(Cl)cc2)C1 (stereo not drawn)
217.5

Which measured MV-4-11 TGI value corresponds to Cc1cc(N2C(=O)c3cc(C4=CCOCC4)n(C)c3C2c2ccc(Cl)cc2)cn2c(C)nnc12 (stereo in doubt) [Example 137] ?
18.75

Report MV-4-11 TGI for CC(=O)Nc1cn(C)c2c1C(=O)N(c1cc(C)c3nnn(C)c3c1)C2c1ccc(Cl)cc1 (stereo not drawn) please.
27.25

I am curious: what MV-4-11 TGI value has been reported for Cc1cc(N2C(=O)c3cc(C4CC4)n(C)c3C2c2ccc(Cl)cc2)cn(C)c1=O (stereo not drawn) ?
51.7

Entry Cc1cn(C2CN(C)C2)c2c1C(=O)N(c1cc(C)c3nnn(C)c3n1)C2c1ccc(Cl)cc1 (stereo not drawn) : reported MV-4-11 TGI = ?
21.25

What value of MV-4-11 TGI has been reported for the following compound? Cc1cc(N2C(=O)c3c(C(=O)NCCN(C)C)cn(C)c3C2c2ccc(Cl)cc2)cc2c1nnn2C (stereo not drawn)
34.75

Data request, read-out MV-4-11 TGI, for Cc1cc(N2C(=O)c3cc(C4CCOCC4)n(C)c3C2c2ccc(Cl)cc2)cn2c(C)nnc12 (stereo not drawn)
89.3

Entry COc1ccc(C2c3c(ccn3C)C(=O)N2c2cc(C)c(=O)n(C)c2)cc1 (stereo not drawn) has what MV-4-11 TGI?
338.5
